Numbers sourced from paper PMC8118430.

# target.entity: COX-2 (Homo sapiens, UniProt P35354)
# Sequence (P35354 18-604): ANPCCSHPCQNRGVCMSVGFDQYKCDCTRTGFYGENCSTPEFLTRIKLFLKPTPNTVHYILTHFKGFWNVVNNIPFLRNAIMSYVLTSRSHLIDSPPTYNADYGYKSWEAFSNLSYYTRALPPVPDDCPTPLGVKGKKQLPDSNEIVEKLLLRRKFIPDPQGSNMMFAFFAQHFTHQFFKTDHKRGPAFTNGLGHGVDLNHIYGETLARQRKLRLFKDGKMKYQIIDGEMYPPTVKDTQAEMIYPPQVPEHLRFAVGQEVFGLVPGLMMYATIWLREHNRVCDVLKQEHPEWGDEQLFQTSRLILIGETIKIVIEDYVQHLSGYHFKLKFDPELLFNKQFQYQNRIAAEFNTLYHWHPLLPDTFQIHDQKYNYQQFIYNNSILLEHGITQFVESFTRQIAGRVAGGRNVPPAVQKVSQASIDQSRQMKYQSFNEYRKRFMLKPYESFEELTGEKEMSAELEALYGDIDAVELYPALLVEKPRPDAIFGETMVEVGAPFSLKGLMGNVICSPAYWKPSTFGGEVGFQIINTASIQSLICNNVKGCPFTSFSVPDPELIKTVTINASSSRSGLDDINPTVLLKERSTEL
# test.name: Cyclooxygenase COX-2 inhibition assay (Cayman COX inhibitor screening kit, EIA)
pIC50: −log10 of the molar value.
Threshold rule: pIC50 greater than or equal to 7 is Met; below that, Not met.

1. O=C1NC(c2ccc(Cl)c(Cl)c2)=CC1=Cc1cccc([N+](=O)[O-])c1    Not met
2. CN(C)c1ccc(C=C2C=C(c3ccc(Cl)c(Cl)c3)OC2=O)cc1    Not met
3. O=C(NCc1ccccc1)C(=Cc1ccccc1[N+](=O)[O-])CC(=O)c1ccc(Cl)c(Cl)c1    Met
4. O=C1OC(c2ccc(Cl)c(Cl)c2)=CC1=Cc1ccccc1[N+](=O)[O-]    Not met
5. O=C1NN(c2ccccc2)C(c2ccc(Cl)c(Cl)c2)=CC1=Cc1cccc([N+](=O)[O-])c1    Met
6. O=C1NC(c2ccc(Cl)c(Cl)c2)=CC1=Cc1ccccc1[N+](=O)[O-]    Not met

Is reported pIC50 greater than or equal to 7 here: O=C(NCc1ccccc1)C(=Cc1cccc([N+](=O)[O-])c1)CC(=O)c1ccc(Cl)c(Cl)c1 Met

Try this compound next: CN(C)c1ccc(C=C2C=C(c3ccc(Cl)c(Cl)c3)N(C(=O)c3ccccc3)NC2=O)cc1 Met

Try this compound next: O=C1OC(c2ccc(Cl)c(Cl)c2)=CC1=Cc1cccc([N+](=O)[O-])c1 Not met

Try this compound next: O=C1NN(c2ccccc2)C(c2ccc(Cl)c(Cl)c2)=CC1=Cc1ccccc1[N+](=O)[O-] Met

Try this compound next: CN(C)c1ccc(C=C(CC(=O)c2ccc(Cl)c(Cl)c2)c2n[nH]c(=S)o2)cc1 Not met

Try this compound next: CN(C)c1ccc(C=C2C=C(c3ccc(Cl)c(Cl)c3)NC2=O)cc1 Not met

Try this compound next: O=C1NN(C(=O)c2ccccc2)C(c2ccc(Cl)c(Cl)c2)=CC1=Cc1cccc([N+](=O)[O-])c1 Met

Try this compound next: CN(C)c1ccc(C=C(CC(=O)c2ccc(Cl)c(Cl)c2)C(=O)NCc2ccccc2)cc1 Met

Try this compound next: O=C(CC(=Cc1ccccc1[N+](=O)[O-])c1n[nH]c(=S)o1)c1ccc(Cl)c(Cl)c1 Not met
